- Protocol Summary: gradient 5% acetonitrile 3 min, to 50% in 2 min, to 85% in 15 min, held 3 min, 100 µL/min
- Assay Conditions: column: Zorbax Extend-C18 2.1 x 50 mm; eluents: water / acetonitrile, 0.1% formic acid
Grouping by measured RP-LC retention time is done with the following cut points: bottom end (below 700 s), midrange (700 s to below 900 s), top end (900 s or more)

compound="O=C(Nc1ccc(F)cc1)N1CCC(n2c(-c3ccco3)nc3cccnc32)C1 (configuration not stated)" qualitative_label=midrange
compound=Cc1ccc(-c2csc(Cc3nc(-c4ccc(F)cc4)no3)n2)cc1 qualitative_label="top end"
compound=Cc1nc2c(sc3nc(-c4ccccc4)ccc32)c(=O)n1CC(=O)NCc1ccc2c(c1)OCO2 qualitative_label="top end"
compound=COCCn1cc2c3c(cccc31)CN(C(=O)Nc1cccc(Cl)c1C)CC2 qualitative_label="top end"
compound=CCn1c(C(=O)Nc2ccc(C)cc2C)cc2sc(Cl)cc21 qualitative_label="top end"
compound="Cc1sc(NC(=O)C(C)C)nc1-c1ccc2c(c1)NC(=O)C(C)O2 (configuration not stated)" qualitative_label=midrange
compound=COc1ccc2[nH]cc(CN3CC[C@H](c4n[nH]c(C)n4)[C@H](N(C)C)C3)c2c1 qualitative_label="bottom end"
compound=COC(=O)c1cccc(C(=O)Nc2cc(C)ccc2C)n1 qualitative_label="top end"
compound=O=C([C@@H]1C[C@H](F)CN1S(=O)(=O)c1ccccc1F)N1CCCCC1 qualitative_label=midrange
compound="Cc1ccc(N2CCN(C(=O)C3CC(=O)N(c4cccc(NC(=O)C(C)C)c4)C3)CC2)cc1 (configuration not stated)" qualitative_label=midrange
compound=O=c1c2cc3c(cc2nc(SCc2nc(-c4ccccc4)no2)n1-c1ccc(F)cc1)OCO3 qualitative_label="top end"
compound=Cc1ccc2oc(=O)n(Cc3noc(C(=O)NCc4ccc(Br)cc4)n3)c2c1 qualitative_label="top end"
compound="c1cc2c(cc1OCc1cn(CC3CCCNC3)nn1)CCC2 (configuration not stated)" qualitative_label="bottom end"
compound="COc1ccc(NC(=O)CCC2CCCN(c3cc(NC4CC4)ncn3)C2)cc1OC (configuration not stated)" qualitative_label="bottom end"
compound=CCOC(=O)c1c(C)oc2nc(C)nc(NCCCN(CC)c3cccc(C)c3)c12 qualitative_label=midrange
compound="CCc1ccc(NC(=O)CSc2cc(N3CCCCC3C)ncn2)cc1 (configuration not stated)" qualitative_label="top end"
compound=CCN1CCN(c2c(C(=O)c3ccc(OC)cc3)cnc3cc4c(cc23)OCCO4)CC1 qualitative_label="bottom end"
compound=CS(=O)(=O)N1CCN(C(=O)c2ccc(-n3cccn3)nn2)CC1 qualitative_label="bottom end"
compound=CCCn1cc(CCNS(=O)(=O)c2ccc(C3CCCCC3)cc2)c2cccnc21 qualitative_label="top end"
compound=CC1(c2noc(C3CC3)n2)CCN(C(=O)C2CCN(S(=O)(=O)N3CCOCC3)CC2)CC1 qualitative_label=midrange
compound=O=C(Cc1ccccc1Br)N1CCN(c2cc(-c3ccccc3)[nH]n2)CC1 qualitative_label=midrange
compound="CCC(C(=O)NCCc1c[nH]c2ccccc12)n1nc(C)c2nn(-c3ccccc3)c(C)c2c1=O (configuration not stated)" qualitative_label="top end"
compound=O=c1ccn(-c2ccc(Cl)cc2)nc1-c1nc(-c2ccccc2Cl)no1 qualitative_label="top end"
compound="COc1ccc(C2Cn3cnc(C(=O)N4CCC(C(=O)Nc5ccc(C)cc5C)CC4)c3CO2)cc1 (configuration not stated)" qualitative_label=midrange
compound="CCCn1c(=O)c(C)nc2cc(-c3noc(C4CC(=O)N(c5ccc(C)c(C)c5)C4)n3)ccc21 (configuration not stated)" qualitative_label="top end"
compound="CSc1ccc(NC(=O)c2c(C)sc3ncnc(N4CCCC(C)C4)c23)cc1 (configuration not stated)" qualitative_label="top end"
compound="Cn1c(C2CCN(C(=O)c3cc4c(s3)CCCC4)C2)nc2ccncc21 (configuration not stated)" qualitative_label="bottom end"
compound=O=C(NCc1cc(F)ccc1F)C1CCN(c2cncnc2N2CCOCC2)CC1 qualitative_label="bottom end"
compound=O=c1c(=O)n(-c2ccccc2)ccn1Cc1nc(-c2cccc(F)c2)no1 qualitative_label=midrange
compound=CN1C(=O)c2cccnc2Sc2cc(NC(=O)c3ccccc3Br)ccc21 qualitative_label=midrange
compound=COc1ccc(-c2csc(NC(=O)Cn3c(=O)oc4ccccc43)n2)cc1OC qualitative_label=midrange
compound=COc1ccc(NC(=O)Cn2cc(C(=O)N3CCCC3)c(=O)c3ccc(C)nc32)cc1 qualitative_label="bottom end"
compound=Cc1ccc(C)c(N2CCN(c3ccnc(SCC(=O)Nc4ccc(Cl)cc4)n3)CC2)c1 qualitative_label="top end"
compound=COC(=O)C1CCN(C(=O)C(=O)Nc2c3c(nn2-c2ccc(Cl)cc2)CSC3)CC1 qualitative_label="bottom end"
